# maps each entry to its chromatographic logP
# Test summary: log P determination by HPLC (EEC Directive 79/831 Annex V.A8)
# Type: physicochemical
# Run parameters: reversed-phase HPLC, Zorbax Eclipse C18 column, by HPLC according to EEC Directive 79/831 Annex V.A8; read-out: log P
Test readout: chromatographic logP

Smiles text | Value measured
CNC(=O)c1cc(C#N)cc(C)c1NC(=O)c1cc(Cn2nnc(C(F)(F)F)n2)nn1-c1c(Cl)cccc1Cl | 3.28
Cc1cc(I)cc(C(=O)NC(C)(C)C)c1NC(=O)c1cc(Cn2nnc(C(F)(F)F)n2)nn1-c1ncccc1Br | 4.09
O=C(NCC(F)F)c1cc(Cl)cc(Cl)c1NC(=O)c1cc(Cn2nnc(C(F)(C(F)(F)F)C(F)(F)F)n2)nn1-c1ncccc1Cl | 3.89
Cc1cc(Br)cc(C(=O)NCC#N)c1NC(=O)c1cc(Cn2nnc(C(F)(F)F)n2)nn1-c1ncccc1C(F)(F)F | 3.21
CNC(=O)c1cc(Br)cc(C)c1NC(=O)c1cc(Cn2nnc(C(F)(F)F)n2)nn1-c1ncccc1Br | 3.12
Cc1cc(Cl)cc(C(=O)NC(C)(C)C)c1NC(=O)c1cc(Cn2nnc(C(F)(F)F)n2)nn1-c1ncccc1Br | 3.88
CNC(=O)c1cc(C#N)cc(C)c1NC(=O)c1cc(Cn2nnc(C(F)(F)F)n2)nn1-c1cc(Cl)ccc1Cl | 3.48

----------
# maps each entry to its chromatographic logP
# Test summary: log P determination by HPLC (EEC Directive 79/831 Annex V.A8)
# Format: physicochemical
# Run parameters: log P
Test readout: chromatographic logP

Compound | Test readout | Value measured
Cc1cc(Cl)cc(C(=O)NC(C)C2CC2)c1NC(=O)c1cc(Cn2nnc(C(F)(F)C(F)(F)F)n2)nn1-c1ncccc1Cl (stereo not shown) [Example 126] | chromatographic logP | 4.25
C=C(C)CNC(=O)c1cc(C#N)cc(C)c1NC(=O)c1cc(Cn2nnc(C(F)(F)F)n2)nn1-c1ncccc1Cl [Example 338] | chromatographic logP | 3.21
CNC(=O)c1cc(C#N)cc(C)c1NC(=O)c1cc(Cn2nnnc2C(F)(F)C(F)(F)F)nn1-c1ncccc1Cl [Example 444] | chromatographic logP | 2.73
Cc1cc(C#N)cc(C(=O)NC(C)C)c1NC(=O)c1cc(Cn2nnnc2C(F)(F)C(F)(F)F)nn1-c1ncccc1Cl [Example 202] | chromatographic logP | 3.14

----------
# maps each entry to its chromatographic logP
# Test summary: log P determination by HPLC (EEC Directive 79/831 Annex V.A8)
# Format: physicochemical
# Run parameters: log P
Test readout: chromatographic logP

Compound | Value measured
Cc1cc(Cl)cc(C(=O)NC(C)C)c1NC(=O)c1cc(Cn2nnnc2C(F)(F)F)nn1-c1ncccc1Cl | 3.12
Cc1cc(Br)cc(C(=O)NC2CC2)c1NC(=O)c1cc(Cn2nnnc2C(F)(F)F)nn1-c1ncccc1Cl | 2.99
Cc1cc(F)cc(C(=O)NC2CC2)c1NC(=O)c1cc(Cn2nnc(C(F)F)n2)nn1-c1ncccc1Cl | 2.41
N#CCNC(=O)c1cc(Cl)cc(Cl)c1NC(=O)c1cc(Cn2nnc(C(F)(F)C(F)(F)F)n2)nn1-c1ncccc1Cl | 3.32
Cc1cc(C#N)cc(C(=O)NC(C)C2CC2)c1NC(=O)c1cc(Cn2nnnc2C(F)F)nn1-c1ncccc1Cl (stereo not shown) | 2.58
Cc1cc(C#N)cc(C(=O)NC2CC2)c1NC(=O)c1cc(Cn2nnc(C(F)(F)C(F)(F)F)n2)nn1-c1ncccc1Cl | 3.26
C#CC(C)NC(=O)c1cc(C#N)cc(C)c1NC(=O)c1cc(Cn2nnc(C(F)(F)F)n2)nn1-c1ncccc1Cl (stereo not shown) | 2.97

----------
# maps each entry to its chromatographic logP
# Test summary: log P determination by HPLC (EEC Directive 79/831 Annex V.A8)
# Type: physicochemical
# Run parameters: reversed-phase HPLC, Zorbax Eclipse C18 column, by HPLC according to EEC Directive 79/831 Annex V.A8; read-out: log P
Test readout: chromatographic logP

Compound | Value measured
Cc1cc(I)cc(C(=O)NC(C)C)c1NC(=O)c1cc(Cn2nnc(C(F)(F)F)n2)nn1-c1ncccc1C(F)(F)F | 3.9
Cc1cc(C#N)cc(C(=O)NC(C)(C)C)c1NC(=O)c1cc(Cn2nnc(C(F)(F)F)n2)nn1-c1ncccc1Br | 3.43
CCOC1CCC(NC(=O)c2cc(C#N)cc(C)c2NC(=O)c2cc(Cn3nnc(C(F)(F)F)n3)nn2-c2ncccc2Cl)CC1 (stereo not shown) | 3.6
Cc1cc(Br)cc(C(=O)NC(C)C)c1NC(=O)c1cc(Cn2nnc(C(F)(F)F)n2)nn1-c1ncccc1C(F)(F)F | 3.76
Cc1cc(Cl)cc(C(=O)NC(C)(C)C)c1NC(=O)c1cc(Cn2nnc(C(F)(C(F)(F)F)C(F)(F)F)n2)nn1-c1ncccc1Cl | 4.56
Cc1cc(Cl)cc(C(=O)NCC2CC2)c1NC(=O)c1cc(Cn2nnc(C(F)(C(F)(F)F)C(F)(F)F)n2)nn1-c1ncccc1Cl | 4.26
CNC(=O)c1cc(Cl)cc(C)c1NC(=O)c1cc(Cn2nnc(C(F)(F)F)n2)nn1-c1ncccc1C(F)(F)F | 3.16
Cc1cc(C#N)cc(C(=O)NCC#N)c1NC(=O)c1cc(Cn2nnc(C(F)(F)F)n2)nn1-c1ncccc1C(F)(F)F | 2.81
CNC(=O)c1cc(C#N)cc(C)c1NC(=O)c1cc(Cn2nnc(C(F)(F)F)n2)nn1-c1ccccc1Br | 3.15
Cc1cc(Br)cc(C(N)=O)c1NC(=O)c1cc(Cn2nnc(C(F)(F)F)n2)nn1-c1ncccc1C(F)(F)F | 3.04
Cc1cc(Cl)cc(C(=O)NC(C)C)c1NC(=O)c1cc(Cn2nnc(C(F)(F)F)n2)nn1-c1ncccc1Br | 3.49
CSC[C@H](C)NC(=O)c1cc(C#N)cc(C)c1NC(=O)c1cc(Cn2nnc(C(F)(C(F)(F)F)C(F)(F)F)n2)nn1-c1ncccc1Cl | 3.96
Cc1cc(Br)cc(C(=O)NC2CC2)c1NC(=O)c1cc(Cn2nnc(C(F)(F)F)n2)nn1-c1ncccc1C(F)(F)F | 3.52

----------
# Test summary: log P determination by HPLC (EEC Directive 79/831 Annex V.A8)
# Assay type: physicochemical
# Run parameters: log P

Molecule | chromatographic logP
Cc1cc(Cl)cc(C(=O)NCC#N)c1NC(=O)c1cc(Cn2nnc(C(F)(F)C(F)(F)F)n2)nn1-c1ncccc1Cl | 3.32
Cc1cc(I)cc(C(=O)NC2CC2)c1NC(=O)c1cc(Cn2nnc(C(F)(F)F)n2)nn1-c1ncccc1Cl | 3.46
Cc1cc(Cl)cc(C(N)=O)c1NC(=O)c1cc(Cn2nnc(C(F)F)n2)nn1-c1ncccc1Cl | 2.32
Cc1cc(I)cc(C(=O)NC(C)C2CC2)c1NC(=O)c1cc(Cn2nnc(C(F)(F)F)n2)nn1-c1ncccc1Cl (stereo not shown) | 4.01
CCNC(=O)c1cc(Cl)cc(Cl)c1NC(=O)c1cc(Cn2nnc(C(F)(F)C(F)(F)F)n2)nn1-c1ncccc1Cl | 3.57
CCNC(=O)c1cc(F)cc(C)c1NC(=O)c1cc(Cn2nnc(C(F)(F)F)n2)nn1-c1ncccc1Cl | 2.88
COCC(C)(C)NC(=O)c1cc(C#N)cc(C)c1NC(=O)c1cc(Cn2nnc(C(F)(F)F)n2)nn1-c1ncccc1Cl | 3.29
Cc1cc(C)c(NC(=O)c2cc(Cn3nnc(C(F)(F)F)n3)nn2-c2ncccc2Cl)c(C(N)=O)c1 | 2.62
Cc1cc(C#N)cc(C(=O)NC(C)C2CC2)c1NC(=O)c1cc(Cn2nnnc2C(F)(F)C(F)(F)F)nn1-c1ncccc1Cl (stereo not shown) | 3.48
Cc1cc(F)cc(C(=O)NC(C)C)c1NC(=O)c1cc(Cn2nnc(C(F)(F)C(F)(F)F)n2)nn1-c1ncccc1Cl | 3.59
CNC(=O)c1cc(F)cc(C)c1NC(=O)c1cc(Cn2nnc(C(F)(F)F)n2)nn1-c1ncccc1Cl | 2.66
CNC(=O)c1cc(Cl)cc(Cl)c1NC(=O)c1cc(Cn2nnnc2C(F)(F)C(F)(F)F)nn1-c1ncccc1Cl | 3.03
Cc1cc(C#N)cc(C(=O)NC2CC2)c1NC(=O)c1cc(Cn2nnc(C(F)(F)F)n2)nn1-c1ncccc1Cl | 2.84
Cc1cc(Cl)cc(C(=O)NC2CCC2)c1NC(=O)c1cc(Cn2nnc(C(F)F)n2)nn1-c1ncccc1Cl | 3.09
Cc1cc(Cl)cc(C(=O)NCC#N)c1NC(=O)c1cc(Cn2nnc(C(F)F)n2)nn1-c1ncccc1Cl | 2.5
CC(NC(=O)c1cc(Cl)cc(Cl)c1NC(=O)c1cc(Cn2nnnc2C(F)(F)C(F)(F)F)nn1-c1ncccc1Cl)C1CC1 (stereo not shown) | 3.81
Cc1cc(Br)cc(C(=O)NC2CCC2)c1NC(=O)c1cc(Cn2nnc(C(F)(F)F)n2)nn1-c1ncccc1Cl | 3.71
Cc1cc(F)cc(C(=O)NC(C)C2CC2)c1NC(=O)c1cc(Cn2nnc(C(F)(F)F)n2)nn1-c1ncccc1Cl (stereo not shown) | 3.41
Cc1cc(C#N)cc(C(=O)NC(C)(C)C)c1NC(=O)c1cc(Cn2nnc(C(F)F)n2)nn1-c1ncccc1Cl | 2.88
CCNC(=O)c1cc(Cl)cc(Cl)c1NC(=O)c1cc(Cn2nnc(C(F)(F)F)n2)nn1-c1ncccc1Cl | 3.17
COCCNC(=O)c1cc(C#N)cc(C)c1NC(=O)c1cc(Cn2nnc(C(F)(F)F)n2)nn1-c1ncccc1Cl | 2.73
CCNC(=O)c1cc(C)cc(C)c1NC(=O)c1cc(Cn2nnc(C(F)(F)F)n2)nn1-c1ncccc1Cl | 3.06
Cc1cc(Br)cc(C(=O)NC(C)C)c1NC(=O)c1cc(Cn2nnnc2C(F)(F)F)nn1-c1ncccc1Cl | 3.22
CNC(=O)c1cc(C#N)cc(C)c1NC(=O)c1cc(Cn2nnc(C(C)(C)C)n2)nn1-c1ncccc1Cl | 2.62
Cc1cc(I)cc(C(=O)NCC2CC2)c1NC(=O)c1cc(Cn2nnc(C(F)F)n2)nn1-c1ncccc1Cl | 3.27
Cc1cc(F)cc(C(N)=O)c1NC(=O)c1cc(Cn2nnc(C(F)(F)F)n2)nn1-c1ncccc1Cl | 2.46
Cc1cc(I)cc(C(N)=O)c1NC(=O)c1cc(Cn2nnc(C(F)F)n2)nn1-c1ncccc1Cl | 2.53
CC(NC(=O)c1cc(Cl)cc(Cl)c1NC(=O)c1cc(Cn2nnnc2C(F)F)nn1-c1ncccc1Cl)C1CC1 (stereo not shown) | 3.02
